meta.source: paper PMC12067261

# assay_remarks: in vitro
# test_settings: human, plasma, fu human, human plasma
endpoint: fraction unbound

compound="CO[C@H]1/C=C/O[C@@]2(C)Oc3c(C)c(O)c4c(c3C2=O)C2=NC3(CCN(CC(C)C)CC3)NC2=C(NC(=O)/C(C)=C\\C=C\\[C@H](C)[C@H](O)[C@@H](C)[C@@H](O)[C@@H](C)[C@H](OC(C)=O)[C@@H]1C)C4=O [RBT, Rifabutin]" result=0.036
